Target: human Gal-1 (hGal-1) (Homo sapiens, UniProt P09382)
Sequence (P09382 whole entry): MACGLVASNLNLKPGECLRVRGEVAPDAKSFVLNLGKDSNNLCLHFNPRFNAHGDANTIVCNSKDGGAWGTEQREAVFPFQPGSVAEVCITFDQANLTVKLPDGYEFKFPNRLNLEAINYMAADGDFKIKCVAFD
Listed next: entries and their corresponding pIC50.
pIC50 is defined as minus the log10 of a concentration measured in mol/L.

Examples with answers:
INSERT INTO assay_data (molecule, test_system, test_result) VALUES
  ('CCN(C)C(=O)[C@@H](S[C@@H]1O[C@H](CO)[C@H](O)[C@H](n2cc(-c3cc(F)c(F)c(F)c3)nn2)[C@H]1O)C1(O)CCC1 [Example 2.34.203S.]', 'human Gal-1 (hGal-1) (Homo sapiens, UniProt P09382)', 6.77),
  ('CO[C@@H]1[C@@H](n2cc(-c3cc(F)c(F)c(F)c3)nn2)[C@@H](O)[C@@H](CO)O[C@H]1S[C@@H](C(=O)N1CCC(F)(F)CC1)C1(O)CCC2(CCC2)CC1 [Example 2.69.226R.I.]', 'human Gal-1 (hGal-1) (Homo sapiens, UniProt P09382)', 5.79),
  ('CN(C(=O)C(S[C@@H]1O[C@H](CO)[C@H](O)[C@H](n2cc(-c3cc(F)c(F)c(F)c3)nn2)[C@H]1O)C1(O)CCOCC1)C1COC1 (some centres unmarked)', 'human Gal-1 (hGal-1) (Homo sapiens, UniProt P09382)', 7.05),
  ('CN(C)C(=O)C(S[C@@H]1O[C@H](CO)[C@H](O)[C@H](n2cc(-c3cc(F)c(F)c(F)c3)nn2)[C@H]1O)C1(O)CCOCC1 (some centres unmarked)', 'human Gal-1 (hGal-1) (Homo sapiens, UniProt P09382)', 5.74),
  ('CCN(C)C(=O)C(S[C@@H]1O[C@H](CO)[C@H](O)[C@H](n2cc(-c3cc(C)cc(C#N)c3)nn2)[C@H]1O)C1(O)CCOCC1 (some centres unmarked)', 'human Gal-1 (hGal-1) (Homo sapiens, UniProt P09382)', 6.82);

Requested read-out pIC50, target or system human Gal-1 (hGal-1) (Homo sapiens, UniProt P09382), entry CCN(C)C(=O)[C@@H](S[C@@H]1O[C@H](CO)[C@H](O)[C@H](n2cc(-c3cc(F)c(F)c(F)c3)nn2)[C@H]1O)C(C)(C)O [Example 2.31.203S.]
6.62

Fill in the recorded pIC50 for this molecule, with human Gal-1 (hGal-1) (Homo sapiens, UniProt P09382) as test system: O=C([C@@H](S[C@@H]1O[C@H](CO)[C@H](O)[C@H](n2cc(-c3cc(F)c(F)c(F)c3)nn2)[C@H]1O)C1(O)CCOCC1)N1CCc2ccccc21 [Example 2.41.209S.]
6.77

// lookup pIC50 | system=human Gal-1 (hGal-1) (Homo sapiens, UniProt P09382) | key= CN1CCC(O)(C(S[C@@H]2O[C@H](CO)[C@H](O)[C@H](n3cc(-c4cc(F)c(F)c(F)c4)nn3)[C@H]2O)C(=O)N(C)Cc2ccccc2)CC1 (some centres unmarked)
6.23

# get_value(readout= pIC50, system= human Gal-1 (hGal-1) (Homo sapiens, UniProt P09382)) for CCN(C)C(=O)C(S[C@@H]1O[C@H](CO)[C@H](O)[C@H](n2cc(-c3cc(F)c(F)c(F)c3)nn2)[C@H]1O)C(C)C (some centres unmarked) [Example 2.53.203., reference compound]
4.44

# get_value(readout= pIC50, system= human Gal-1 (hGal-1) (Homo sapiens, UniProt P09382)) for CCN(CC)C(=O)C(S[C@@H]1O[C@H](CO)[C@H](O)[C@H](n2cc(-c3cc(F)c(F)c(F)c3)nn2)[C@H]1O)C1(O)CCOCC1 (some centres unmarked)
6.96

Missing value: pIC50, human Gal-1 (hGal-1) (Homo sapiens, UniProt P09382), entry CO[C@@H]1[C@@H](n2cc(-c3cc(F)c(F)c(F)c3)nn2)[C@@H](O)[C@@H](CO)O[C@H]1SC(C(=O)N(C)CC(F)(F)F)C1(O)CCC(F)(F)CC1 (some centres unmarked) . Fill in?
6.19
